Let's look at some molecules and their measured pIC50.
- Tested System: P2X7 (UniProt Q99572)
- Assay Comment: pIC50 values for P2X7 (Table 1)
- Format: cell-based
Give your answer as a number; write no unit.

Note to self: pIC50 recorded for COC(=O)COc1cc(NC(=O)N2C=CC(=O)C[C@H]2c2ccc(F)cc2)c(Br)cc1Cl was 6.7

Please fill in: pIC50 reported for COc1cc(NC(=O)N2C=CC(=O)CC2c2ccc(F)c(F)c2)c(Br)cc1C (centres unmarked) = 7.383

Please fill in: pIC50 reported for Cn1ccc2cc(NC(=O)N3C=CC(=O)C[C@H]3c3ccc(F)cc3)ccc21 = 7.405

Value of pIC50 reported for the molecule COc1cc(Br)c(NC(=O)N2C=CC(=O)CC2c2ccccc2)cc1OC (centres unmarked) is 7.408

Sample Cc1cccc(NC(=O)N2C=CC(=O)C[C@H]2c2ccc(F)cc2)c1C ; pIC50 observed: 7.74

pIC50 measured on Cc1ccc(C)c(NC(=O)N2C=CC(=O)C[C@H]2c2ccc(F)cc2)c1 = 7.9775

---

- Tested System: P2X7 (UniProt Q99572)
- Assay Comment: pIC50 values for P2X7 (Table 1)
- Format: cell-based
Tick T if pIC50 is 7 or greater. Tick F if pIC50 is less than 7.

Compound	Group Label
COc1ccc(NC(=O)N2C=CC(=O)C[C@H]2c2cccc(F)c2)cc1OC	F
O=C(O)COc1cc(NC(=O)N2C=CC(=O)C[C@H]2c2ccc(F)cc2)c(Br)cc1Cl	F
O=C1C=CN(C(=O)Nc2c(F)cc(F)cc2Br)C(c2ccc(F)cc2)C1 (centres unmarked)	F

Lookup: Answer whether pIC50 of O=C1C=CN(C(=O)Nc2cc3c(cc2Br)OCO3)C(c2ccc(F)cc2)C1 (centres unmarked) is greater than or equal to 7.
Found: T

Lookup: Please tell me: is the compound O=C1C=CN(C(=O)Nc2cc(CO)c(Cl)cc2Br)[C@H](c2ccc(F)cc2)C1 at or over 7 in terms of pIC50?
Found: T

Lookup: Determine whether measured pIC50 meets or exceeds 7 for COc1cc(Br)c(CNC(=O)N2C=CC(=O)CC2c2ccc(F)cc2)cc1OC (centres unmarked)
Found: F

Lookup: Is pIC50 for Cc1cc(F)c(OCCO)cc1NC(=O)N1C=CC(=O)C[C@H]1c1ccc(F)cc1 at or above 7?
Found: T

---

- Tested System: P2X7 (UniProt Q99572)
- Assay Comment: pIC50 values for P2X7 (Table 1)
- Format: cell-based
Endpoint: pIC50
Number, no unit, nothing else.

The molecule listed as Cc1c(NC(=O)N2C=CC(=O)C[C@H]2c2ccc(F)cc2)ccc2ncccc12 has a reported pIC50 of 7.16

Per the records, this molecule ( Cc1n[nH]c2cc(NC(=O)N3C=CC(=O)C[C@H]3c3ccc(F)cc3)c(Br)cc12 ) has pIC50 equal to 6.905

Record Cc1cc(F)c(F)cc1NC(=O)N1C=CC(=O)C[C@H]1c1ccc(F)cc1 . Reported pIC50: 7.12

CN(C)C(=O)COc1cc(NC(=O)N2C=CC(=O)C[C@H]2c2ccc(F)cc2)c(Br)cc1Cl has a reported pIC50 of 6.95

---

- Tested System: P2X7 (UniProt Q99572)
- Sequence (Q99572 1-595): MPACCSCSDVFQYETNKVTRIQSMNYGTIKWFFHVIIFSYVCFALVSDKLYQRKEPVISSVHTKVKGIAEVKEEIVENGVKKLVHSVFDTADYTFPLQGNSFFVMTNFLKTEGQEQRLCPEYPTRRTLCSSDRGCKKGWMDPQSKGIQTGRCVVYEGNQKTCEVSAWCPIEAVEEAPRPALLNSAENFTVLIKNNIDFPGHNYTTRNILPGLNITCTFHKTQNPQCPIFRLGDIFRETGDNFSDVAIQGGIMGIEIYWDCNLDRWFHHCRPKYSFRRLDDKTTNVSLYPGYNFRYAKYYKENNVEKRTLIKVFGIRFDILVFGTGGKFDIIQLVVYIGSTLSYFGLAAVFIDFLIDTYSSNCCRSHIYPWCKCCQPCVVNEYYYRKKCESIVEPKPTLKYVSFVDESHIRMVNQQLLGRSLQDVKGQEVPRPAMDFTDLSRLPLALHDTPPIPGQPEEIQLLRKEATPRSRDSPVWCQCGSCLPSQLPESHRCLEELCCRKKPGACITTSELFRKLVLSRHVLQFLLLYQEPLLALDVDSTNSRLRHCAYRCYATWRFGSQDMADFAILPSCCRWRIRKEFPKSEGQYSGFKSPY
- Assay Comment: pIC50 values for P2X7 (Table 1)
- Type: cell-based
- Experimental: Intracellular Calcium Flux (FLIPR) Assay Compound and Reagent Preparation Stock solutions of compounds were prepared from powders as a 10 mM DMSO stock solution. These solutions were stored at RT during the two week period of these experiments to prevent freeze-thaw of the DMSO stocks. The DMSO stocks were added to the appropriate assay buffer at a concentration of 10 μM, and then diluted serially to the final concentrations that were tested. […]
Entries and their pIC50
Please state the value as a number alone, without comment.

# annotated cases, reported pIC50 shown
Molecule	pIC50
CCc1cc2ncccc2cc1NC(=O)N1C=CC(=O)C[C@H]1c1ccc(F)cc1	7.85
CS(=O)(=O)CCCOc1cc(NC(=O)N2C=CC(=O)C[C@H]2c2ccc(F)cc2)c(Br)cc1Cl	6.38

Record for COc1ccc(NC(=O)N2C=CC(=O)C[C@H]2c2ccc(F)cc2)c(C)c1 under target or system P2X7 (UniProt Q99572): pIC50 reported as 7.05

# pIC50 measured on P2X7 (UniProt Q99572) for item COC(=O)c1cc(Br)c(NC(=O)N2C=CC(=O)CC2c2ccc(F)cc2)cc1OC (stereo not drawn) = 7.15

Entry COc1cc(NC(=O)N2C=CC(=O)C[C@H]2c2ccc(F)cc2)c(Br)cc1C , tested on P2X7 (UniProt Q99572), has a reported pIC50 of 7.873

Observed pIC50 on P2X7 (UniProt Q99572), entry COc1cc(Br)c(NC(=O)N2C=CC(=O)C[C@H]2c2cccc(F)c2)cc1OC , equals 8.56

The molecule COc1ccc(NC(=O)N2C=CC(=O)C[C@H]2c2ccc(F)cc2)cc1OC , tested on P2X7 (UniProt Q99572), showed pIC50 of 7.2425

---

- Tested System: P2X7 (UniProt Q99572)
- Assay Comment: pIC50 values for P2X7 (Table 1)
- Type: cell-based
Endpoint: pIC50
Give only the figure.

Use these answered entries as a reference point.
1. COCCN(C)Cc1cc(NC(=O)N2C=CC(=O)C[C@H]2c2ccc(F)cc2)c(C)cc1Cl 6.43
2. COc1cc(NC(=O)N2C=CC(=O)C[C@H]2c2ccc(F)cc2)c(F)cc1Cl 7.195
3. O=C1C=CN(C(=O)Nc2cc(F)c(Cl)cc2Br)[C@H](c2ccc(F)cc2)C1 6.286
4. COC(=O)c1cc(Br)c(NC(=O)N2C=CC(=O)C[C@H]2c2cccc(F)c2)cc1OC 7.06
5. Cn1ccc2ccc(NC(=O)N3C=CC(=O)C[C@H]3c3ccc(F)cc3)cc21 7.57

For record CNC(=O)COc1cc(NC(=O)N2C=CC(=O)C[C@H]2c2ccc(F)cc2)c(Br)cc1Cl the listed pIC50 is 6.785

The compound identified as COc1cc(NC(=O)N2C=CC(=O)C[C@H]2c2cccc(F)c2)ccc1Cl registered its pIC50 at 6.295

For Cc1cc(Cl)c(CCO)cc1NC(=O)N1C=CC(=O)C[C@H]1c1ccc(F)cc1 the compound record lists pIC50 as 8.06

Data point: Cc1ccccc1NC(=O)N1C=CC(=O)C[C@H]1c1ccc(F)cc1 ; pIC50 = 7.53

The compound Cc1cc(Cl)c(CNC(=O)OC(C)(C)C)cc1NC(=O)N1C=CC(=O)C[C@H]1c1ccc(F)cc1 showed pIC50 equal to 5.995

Memo: Cc1cc2ccn(CCO)c2cc1NC(=O)N1C=CC(=O)C[C@H]1c1ccc(F)cc1 , reported pIC50: 8.155

---

- Tested System: UniProtKB Q99572
- Sequence (Q99572 1-595): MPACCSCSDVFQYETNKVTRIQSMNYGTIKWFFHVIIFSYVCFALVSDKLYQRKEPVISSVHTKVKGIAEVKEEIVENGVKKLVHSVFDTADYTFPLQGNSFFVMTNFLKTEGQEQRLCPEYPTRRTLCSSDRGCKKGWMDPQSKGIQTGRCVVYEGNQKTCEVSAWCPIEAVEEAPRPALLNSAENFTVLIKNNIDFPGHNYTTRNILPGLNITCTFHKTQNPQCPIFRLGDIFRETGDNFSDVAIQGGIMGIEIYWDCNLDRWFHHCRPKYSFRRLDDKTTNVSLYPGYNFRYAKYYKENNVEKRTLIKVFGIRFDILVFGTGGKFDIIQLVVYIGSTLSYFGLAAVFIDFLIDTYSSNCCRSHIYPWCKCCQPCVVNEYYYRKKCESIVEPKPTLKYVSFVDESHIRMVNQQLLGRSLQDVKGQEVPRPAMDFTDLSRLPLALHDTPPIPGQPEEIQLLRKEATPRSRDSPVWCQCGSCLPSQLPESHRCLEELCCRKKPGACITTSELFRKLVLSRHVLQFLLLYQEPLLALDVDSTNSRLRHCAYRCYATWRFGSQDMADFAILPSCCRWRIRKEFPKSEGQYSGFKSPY
- Assay Comment: pIC50 values for P2X7 (Table 1)
- Assay type: cell-based
Kind request: treat 7 as inclusive, so pIC50 at 7 or higher is Fulfilled, anything lower is Not fulfilled.

For orientation, consider the following solved cases.
1. Cc1ccc(NC(=O)N2C=CC(=O)C[C@H]2c2ccc(F)cc2)c(C)c1 Fulfilled
2. COc1cc(NC(=O)N2C=CC(=O)C[C@@H]2c2cc(F)cc(F)c2)c(Br)cc1C Not fulfilled
3. O=C1C=CN(C(=O)Nc2ccc(OC(F)(F)F)cc2Br)[C@H](c2ccc(F)cc2)C1 Not fulfilled

Shift focus to the following entry.
Lookup: Does the compound COc1cc(C)c(NC(=O)N2C=CC(=O)C[C@H]2c2ccc(F)cc2)cc1OC have recorded pIC50 that is 7 or more?
Found: Fulfilled
